Hello, the source for this data is PubChem BioAssay (NCATS), in case you need it.

Tested on: C2A
assay.explanation: qHTS profiling for inhibitors of Plasmodium falciparum proliferation (AID 504749); also: nearly all actives have a fitted effect of over 60% in size
particulars: P. falciparum in erythrocytes, SYBR Green DNA, 72 h; series mostly up to 28.7 µM
Records with an inconclusive call do not appear. Activity calls are given as the source filed them. Calls follow the shape of the dose curve; as a rule, active = well fitted inhibition curve with a large enough effect; inconclusive = small, poorly fitted or top-dose-only effect; inactive = flat fitted curve, though single readings scatter.
Outcomes: 1.0 (active), 0.0 (inactive)

compound=Nc1ncnc2nc[nH]c12 label_value=0.0
compound=CN1CCC(Nc2ncc3ncnc(Nc4ccc(F)c(Cl)c4)c3n2)CC1 label_value=1.0
compound=CCCCCCCCCCCCCC[N+](C)(C)C label_value=1.0
compound=O=S(=O)(O)c1ccc2nc(-c3ccccc3)[nH]c2c1 label_value=0.0
compound=O=[N+]([O-])c1ccc(O)c2ncccc12 label_value=1.0
compound="CC(NCCC(c1ccccc1)c1ccccc1)c1ccccc1 (configuration not stated)" label_value=1.0
compound=CCCCCCCCCCCCCCCC[n+]1ccccc1 label_value=1.0

---

assay.explanation: qHTS of pediatric cancer cell lines to identify multiple opportunities for drug repurposing: Confirmatory screen for Rh18 cells (AID 1347125);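 also: cells exposed to compound for 48 h; nearly all actives have a fitted effect of over 55% in size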
particulars: Rh18 rhabdomyosarcoma cells, viability; series mostly up to 45.9 µM
Experimental: Drug repurposing or repositioning has been offered as a strategy for drug development in oncology programs. […] [1] Shen, M et al. Quantitative high-throughput phenotypic screening of pediatric cancer cell lines identifies multiple opportunities for drug repurposing. […] Cells were assayed in growth media at a density of 500-1,000 cells/well. […] After a 15 min incubation at room temperature, samples were analyzed for luminescence intensity using a ViewLux High-throughput CCD imager equipped with clear filters.
Results filed as inconclusive are left out. Active and inactive are the calls of the source. Calls come from the whole dose curve; as a rule, active = well fitted cell-killing curve with a large enough effect; inconclusive = small, poorly fitted or top-dose-only effect, or effect the other way; inactive = flat fitted curve, though single readings scatter.
Outcomes: class 1 (active), class 0 (inactive)

molecule=CC(=O)OCC(=O)[C@@]1(O)[C@H](OC(C)=O)C[C@H]2[C@@H]3CCC4=CC(=O)C=C[C@]4(C)[C@@]3(F)[C@@H](O)C[C@@]21C label_value="class 0"
molecule="Cc1ccc(C(=O)Oc2ccc(C(O)CNC(C)(C)C)cc2OC(=O)c2ccc(C)cc2)cc1 (stereo not drawn)" label_value="class 0"
molecule="CCC(=O)O[C@]1(C(=O)COC)[C@@H](C)C[C@H]2[C@@H]3CCC4=CC(=O)C=C[C@]4(C)C3(F)[C@@H](O)C[C@@]21C (stereo partly drawn)" label_value="class 0"
molecule=CCN(CC)CC(=O)OCC(=O)[C@@]1(O)CC[C@H]2[C@@H]3CCC4=CC(=O)CC[C@]4(C)[C@H]3[C@@H](O)C[C@@]21C label_value="class 0"
molecule=CN(C)CCN(Cc1ccsc1)c1ccccn1 label_value="class 0"
molecule=CCCC(=O)O[C@]1(C(=O)CCl)[C@@H](C)C[C@H]2[C@@H]3CCC4=CC(=O)C=C[C@]4(C)[C@@]3(F)C(=O)C[C@@]21C label_value="class 0"
molecule=N=C(N)c1ccc(OCCCOc2ccc(C(=N)N)cc2)cc1 label_value="class 0"
molecule=O=[N+]([O-])c1ccc(O)c2ncccc12 label_value="class 1"

---

test.system: Glutathione peroxidase 1 (Homo sapiens)
assay.explanation: Primary qHTS Assay for Inhibitors of Recombinant Selenoprotein Glutathione Peroxidase 1 (GPX1) (AID 1845191); also: nearly all actives have a fitted effect of over 65% in size
particulars: recombinant GPX1, GR-coupled NADPH fluorescence, 15 min; series mostly up to 48.8 µM
Inconclusive results are not listed. Activity calls are given as the source filed them. Calls follow the shape of the dose curve; as a rule, active = well fitted inhibition curve with a large enough effect; inconclusive = small, poorly fitted or top-dose-only effect; inactive = flat fitted curve, though single readings scatter.
Outcomes: true (active), false (inactive)

compound=O=[N+]([O-])c1cncn1CCN1CCOCC1 test_system="Glutathione peroxidase 1 (Homo sapiens)" label_value=false
compound=CN1CCC(N(Cc2cccs2)c2ccccc2)CC1 test_system="Glutathione peroxidase 1 (Homo sapiens)" label_value=false
compound=O=C1CC[C@H](C(=O)N2CCCCC2)N1 test_system="Glutathione peroxidase 1 (Homo sapiens)" label_value=false
compound=COc1cc(NS(=O)(=O)c2ccc(N)cc2)nc(C)n1 test_system="Glutathione peroxidase 1 (Homo sapiens)" label_value=false
compound="C[N+]1(C)CCC(OC(=O)C(O)(c2ccccc2)C2CCCC2)C1 (configuration not stated)" test_system="Glutathione peroxidase 1 (Homo sapiens)" label_value=false
compound="CCCCC(CC)CNC(=O)CC(C)OC(=O)CCC(=O)O (configuration not stated)" test_system="Glutathione peroxidase 1 (Homo sapiens)" label_value=false
compound=O=C(O)C(=O)Nc1cccc(-c2nn[nH]n2)c1 test_system="Glutathione peroxidase 1 (Homo sapiens)" label_value=false
compound=CC(C)C[C@@H]1[C@H](c2ccccc2)OC(=O)N1CCCN1CCCCCC1 test_system="Glutathione peroxidase 1 (Homo sapiens)" label_value=false
compound=CC(C)=CCC/C(C)=C/CC/C(C)=C/C(=O)OCC(=O)[C@@]1(O)CC[C@H]2[C@@H]3CCC4=CC(=O)C=C[C@]4(C)[C@H]3[C@@H](O)C[C@@]21C test_system="Glutathione peroxidase 1 (Homo sapiens)" label_value=false
compound=CC(=O)N(CC(=O)N(C)C)c1ccccc1 test_system="Glutathione peroxidase 1 (Homo sapiens)" label_value=false
compound="O=C(OCC(O)CO)c1ccccc1Nc1ccnc2c(C(F)(F)F)cccc12 (configuration not stated)" test_system="Glutathione peroxidase 1 (Homo sapiens)" label_value=false
compound=O=C1NC(c2cccc([N+](=O)[O-])c2)=CCN1c1ccccc1O test_system="Glutathione peroxidase 1 (Homo sapiens)" label_value=false
compound=CCCCOCCOC(=O)c1cccnc1 test_system="Glutathione peroxidase 1 (Homo sapiens)" label_value=false
compound=Brc1ccc([C@H]2CN3CCSC3=N2)cc1 test_system="Glutathione peroxidase 1 (Homo sapiens)" label_value=false
compound=NS(=O)(=O)c1cc(C(=O)NN2C[C@H]3[C@H]4CCC(C4)[C@H]3C2)ccc1Cl test_system="Glutathione peroxidase 1 (Homo sapiens)" label_value=false
compound=CC(=O)Oc1ccc(C2(c3ccc(OC(C)=O)cc3)Oc3ccccc3NC2=O)cc1 test_system="Glutathione peroxidase 1 (Homo sapiens)" label_value=false
compound=CC(=O)Nc1c(I)c(NC(C)=O)c(I)c(C(=O)O)c1I test_system="Glutathione peroxidase 1 (Homo sapiens)" label_value=false
compound=CNC[C@H](O)[C@@H](O)[C@H](O)[C@H](O)CO test_system="Glutathione peroxidase 1 (Homo sapiens)" label_value=false
compound=C[C@@H]1C[C@H]2[C@@H]3CCC4=CC(=O)C=C[C@]4(C)[C@@]3(F)[C@@H](O)C[C@]2(C)[C@@]1(O)C(=O)COC(=O)c1ccncc1 test_system="Glutathione peroxidase 1 (Homo sapiens)" label_value=false
compound=CCC(=O)Oc1ccc2c(c1)CC[C@@H]1[C@@H]2CC[C@@]2(C)[C@H]1C[C@@H](OC(=O)CC)[C@@H]2OC(=O)CC test_system="Glutathione peroxidase 1 (Homo sapiens)" label_value=false
compound=CC(=O)OCC(=O)[C@@]1(O)[C@H](OC(C)=O)C[C@H]2[C@@H]3CCC4=CC(=O)C=C[C@]4(C)[C@@]3(F)[C@@H](O)C[C@@]21C test_system="Glutathione peroxidase 1 (Homo sapiens)" label_value=false
compound=NC(=O)C1(N2CCCCC2)CCN(CCCN2c3ccccc3CCc3ccc(Cl)cc32)CC1 test_system="Glutathione peroxidase 1 (Homo sapiens)" label_value=false
compound=Cc1cc2nc3ccc(=[N+](C)C)cc-3sc2cc1N test_system="Glutathione peroxidase 1 (Homo sapiens)" label_value=true
compound=O=C(O)Cc1ccccc1Oc1ccc(Cl)cc1Cl test_system="Glutathione peroxidase 1 (Homo sapiens)" label_value=false
compound=CCOC(=O)[C@H](CCc1ccccc1)N[C@@H](C)C(=O)N(CC(=O)O)C1Cc2ccccc2C1 test_system="Glutathione peroxidase 1 (Homo sapiens)" label_value=false
compound=CCN1CCN(C(=O)N[C@@H](C(=O)N[C@@H]2C(=O)N3[C@@H]2SC(C)(C)[C@H]3C(=O)O)c2ccccc2)C(=O)C1=O test_system="Glutathione peroxidase 1 (Homo sapiens)" label_value=false
compound="COc1cc(C(=O)NC2CCCNC2)cc(OC)c1OC (configuration not stated)" test_system="Glutathione peroxidase 1 (Homo sapiens)" label_value=true
compound="CC(C(=O)O)c1ccc(/C=C2\\CCCCC2=O)cc1 (configuration not stated)" test_system="Glutathione peroxidase 1 (Homo sapiens)" label_value=false
compound=Nc1ncnc2n[nH]c(Nc3ccc(F)cc3)c12 test_system="Glutathione peroxidase 1 (Homo sapiens)" label_value=false
compound="CCC(C(=O)OCCN1CCOC(c2ccccc2)C1C)c1ccccc1 (configuration not stated)" test_system="Glutathione peroxidase 1 (Homo sapiens)" label_value=false
compound=C[C@H]1NCc2cc(-c3ccc4c(=O)c(C(=O)O)cn(C5CC5)c4c3OC(F)F)ccc21 test_system="Glutathione peroxidase 1 (Homo sapiens)" label_value=false
compound=O=S(=O)(O)c1ccc2nc(-c3ccccc3)[nH]c2c1 test_system="Glutathione peroxidase 1 (Homo sapiens)" label_value=false
compound=CCCCCOc1ccccc1/C(=C\SC)n1ccnc1 test_system="Glutathione peroxidase 1 (Homo sapiens)" label_value=false
compound=C[N+](C)(CCOc1ccccc1)Cc1cccs1 test_system="Glutathione peroxidase 1 (Homo sapiens)" label_value=false
compound=COC(=O)[C@H]1[C@H]2C[C@@H]3c4[nH]c5cc(OC)ccc5c4CCN3C[C@H]2C[C@@H](OC(=O)/C=C/c2ccc(O)c(OC)c2)[C@@H]1OC test_system="Glutathione peroxidase 1 (Homo sapiens)" label_value=false
compound=Nc1ccc2cc3ccc(N)cc3nc2c1 test_system="Glutathione peroxidase 1 (Homo sapiens)" label_value=false
compound=O=C(O)c1ccccc1S test_system="Glutathione peroxidase 1 (Homo sapiens)" label_value=false
compound=CCOC(=O)c1cc(=O)c2c(OCC(COc3cccc4oc(C(=O)OCC)cc(=O)c34)OC(=O)[C@@H](N)CCCCN)cccc2o1 test_system="Glutathione peroxidase 1 (Homo sapiens)" label_value=false
compound=COc1cccc2c1[C@@H]1CN(CCCCn3c(=O)[nH]c4c(sc5ncc(-c6ccccc6)nc54)c3=O)C[C@@H]1CO2 test_system="Glutathione peroxidase 1 (Homo sapiens)" label_value=false
compound=Oc1ccccc1 test_system="Glutathione peroxidase 1 (Homo sapiens)" label_value=false
compound=O=C(Nc1ccc(Cl)cc1)Nc1ccc(Cl)c(Cl)c1 test_system="Glutathione peroxidase 1 (Homo sapiens)" label_value=false
compound=O=C1NC(=O)/C(=C/c2ccc3c(c2)OC(F)(F)O3)S1 test_system="Glutathione peroxidase 1 (Homo sapiens)" label_value=false
